Method Description: qHTS assay to identify small molecule antagonists of the thyroid receptor (TR) signaling pathway - cell viability counter screen (AID 743064); also: nearly all actives have a fitted effect of over 50% in size
Condition Description: GH3.TRE-Luc viability, CellTiter-Fluor, 24 h; series mostly up to 70.3 µM
Results filed as inconclusive are left out. Calls of active or inactive are those of the source. Calls follow the shape of the dose curve; as a rule, active = well fitted cell-killing curve with a large enough effect in the repeat runs; inconclusive = weak or mixed curves, or effect the other way; inactive = no such curve, though single readings can be large or run the other way.
Result category, one only: active, inactive

Check out these entries, answers already filled in.
Molecule | Label
O=C(O)C(F)(F)C(F)(F)C(F)(F)C(F)(F)C(F)(F)C(F)(F)C(F)(F)C(F)(F)C(F)(F)C(F)(F)F | inactive
CC(=O)C(C)(C)C | inactive
C/C(=C\c1ccccc1)[N+](=O)[O-] | active
ClCC(Br)CBr (stereo not given) | inactive

Then this molecule:
Query: Could you check what this test reported for "ClCc1ccccc1" ?
Result: inactive
